Molecular target: UniProt P41968
Sequence (P41968 whole entry): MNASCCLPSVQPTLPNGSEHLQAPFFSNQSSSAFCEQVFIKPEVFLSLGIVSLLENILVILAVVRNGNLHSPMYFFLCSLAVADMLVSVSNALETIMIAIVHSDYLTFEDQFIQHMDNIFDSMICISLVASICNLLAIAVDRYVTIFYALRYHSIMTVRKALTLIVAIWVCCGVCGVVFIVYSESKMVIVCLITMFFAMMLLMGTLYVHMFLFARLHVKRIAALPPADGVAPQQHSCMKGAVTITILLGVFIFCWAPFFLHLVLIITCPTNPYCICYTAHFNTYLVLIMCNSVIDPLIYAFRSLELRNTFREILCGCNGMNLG
Test: Binding affinity in competition with [125I]NDP-MSH on recombinant melanocortin 3 receptor
# reported Ki; entries follow

Would you please look over these solved cases?
COc1ccc(CN[C@@H](CCCNC(=N)N)C(N)=O)c(Cl)c1OC    > 1 µM
COc1ccc(CNC(CCCN=C(N)N)C(=O)O)cc1OC (stereo not drawn)    > 1 µM
NC(=O)[C@@H](Cc1ccc2ccccc2c1)NCc1c[nH]c2ccccc12    > 1000 µM
NC(=O)[C@H](Cc1ccc2ccccc2c1)NCc1c[nH]c2ccccc12    > 1000 µM
N=C(N)NCCC[C@@H](NCc1c[nH]c2ccccc12)C(N)=O    > 1 µM
COc1ccc(CN[C@@H](CCCN=C(N)N)C(N)=O)cc1OC    > 1 µM
O=C(NCCc1c[nH]cn1)[C@@H]1C[C@H](O)CN1Cc1ccc2ccccc2c1    161 µM
COc1ccc(CN[C@H](CCCNC(=N)N)C(=O)O)c(Cl)c1OC    > 1 µM
NC(N)=NCCCC(NCc1c[nH]c2ccccc12)C(=O)O (stereo not drawn)    > 1 µM
N=C(N)NCCC[C@@H](NCc1ccc2ccccc2c1)C(N)=O    > 1000 µM

Asked: Answer with Ki of "C=CCOC(=O)[C@H](CCCNC(=N)N)NCc1ccc2ccccc2c1" measured for UniProt P41968.
Given back: 28 µM

Asked: Recall the reported Ki of "N=C(N)NCCC[C@H](NCc1c[nH]c2ccccc12)C(=O)N[C@@H](Cc1c[nH]c2ccccc12)C(N)=O" when tested on UniProt P41968.
Given back: > 1000 µM

Asked: Print UniProt P41968 Ki for "N=C(N)NCCCNC(=O)[C@H](CCCN=C(N)N)NCc1ccc2ccccc2c1" .
Given back: 4.8 µM
